target-or-system: noradrenalin transporters (Rattus norvegicus, UniProt Q9WTR4)
Sequence (Q9WTR4 1-597): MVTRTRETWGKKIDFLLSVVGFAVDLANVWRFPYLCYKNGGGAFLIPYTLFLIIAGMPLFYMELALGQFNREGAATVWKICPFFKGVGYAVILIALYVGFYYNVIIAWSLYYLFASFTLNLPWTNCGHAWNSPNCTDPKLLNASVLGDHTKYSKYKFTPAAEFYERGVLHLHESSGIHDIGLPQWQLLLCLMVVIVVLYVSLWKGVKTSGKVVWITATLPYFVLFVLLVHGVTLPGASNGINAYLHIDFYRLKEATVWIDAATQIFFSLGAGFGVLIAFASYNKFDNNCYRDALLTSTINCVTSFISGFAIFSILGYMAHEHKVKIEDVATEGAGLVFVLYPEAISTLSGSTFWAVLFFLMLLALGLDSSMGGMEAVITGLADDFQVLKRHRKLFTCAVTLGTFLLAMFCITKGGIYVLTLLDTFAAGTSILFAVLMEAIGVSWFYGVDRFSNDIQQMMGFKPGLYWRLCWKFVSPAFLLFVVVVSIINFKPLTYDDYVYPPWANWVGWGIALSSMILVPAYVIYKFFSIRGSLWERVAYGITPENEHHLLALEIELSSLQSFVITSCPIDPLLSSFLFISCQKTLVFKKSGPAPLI
Where a name gives a salt, the structure may show the parent alone.
value-type: pKi
Numbers only, as −log10 of the molar value.

What value of pKi on noradrenalin transporters (Rattus norvegicus, UniProt Q9WTR4) does N=C(N)N1CCc2ccccc2C1 [Debrisoquine sulfate, debrisoquine sulfate] have? 6.23
